Data origin, for the record: the supplement of paper PMC7877785

test: self-splicing fitness, log relative to wild type (ln ratio); higher = more splicing; Tetrahymena group I intron in knt gene, E. coli kanamycin selection, DiMSum; sequences stand for … in CUCUCU…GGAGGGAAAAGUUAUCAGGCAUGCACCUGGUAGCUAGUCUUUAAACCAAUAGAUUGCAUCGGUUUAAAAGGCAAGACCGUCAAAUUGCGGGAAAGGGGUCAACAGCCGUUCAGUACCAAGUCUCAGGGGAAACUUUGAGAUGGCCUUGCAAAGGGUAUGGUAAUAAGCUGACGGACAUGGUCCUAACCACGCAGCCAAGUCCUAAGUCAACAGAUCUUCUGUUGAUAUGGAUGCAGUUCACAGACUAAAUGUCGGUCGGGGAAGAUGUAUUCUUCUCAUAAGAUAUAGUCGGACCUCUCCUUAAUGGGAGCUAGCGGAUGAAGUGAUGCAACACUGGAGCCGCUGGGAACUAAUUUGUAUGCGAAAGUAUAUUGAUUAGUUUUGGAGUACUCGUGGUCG; settings: 37 °C;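 further: selection with 25 µg/mL kanamycin versus none on LB agar overnight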
Parameter threshold = -1. Response is 1 (yes) when self-splicing fitness (ln) meets or exceeds it, else 0 (no).

sequence_content=AUCUAGCAAUAUUACGGAUA class_name="0 (no)"
sequence_content=UCCAAGCAAUAUUACGAUAC class_name="0 (no)"
sequence_content=AUUCAGCAAUAUUACGAUUU class_name="1 (yes)"
sequence_content=AAGUAGCAAUAUUACGGUGC class_name="0 (no)"
sequence_content=AGUAAGCAAUAUUACGUACC class_name="1 (yes)"
sequence_content=UCCCAGCAAUAUUACGGGGG class_name="0 (no)"
sequence_content=UAAUAGCAAUAUUACGGUGC class_name="0 (no)"
sequence_content=UGGUAGCAAUAUUACGCGUU class_name="0 (no)"
sequence_content=UCGCAGCAAUAUUACGCAUC class_name="0 (no)"
sequence_content=CAUGAGCAAUAUUACGUGUG class_name="0 (no)"
sequence_content=UAAUAGCAAUAUUACGCUAU class_name="0 (no)"
sequence_content=UUUAAGCAAUAUUACGCGGA class_name="1 (yes)"
sequence_content=UUAGAGCAAUAUUACGGGCG class_name="0 (no)"
sequence_content=CUGUAGCAAUAUUACGGAUC class_name="0 (no)"
sequence_content=GCCUAGCAAUAUUACGUGGU class_name="0 (no)"
sequence_content=UCGAAGCAAUAUUACGGCCU class_name="0 (no)"
sequence_content=CCCGAGCAAUAUUACGCCUC class_name="0 (no)"
sequence_content=GAGCAGCAAUAUUACGCGGC class_name="0 (no)"
sequence_content=GCCGAGCAAUAUUACGGGUA class_name="1 (yes)"
sequence_content=GCCGAGCAAUAUUACGUUGC class_name="0 (no)"
sequence_content=ACGAAGCAAUAUUACGGUGA class_name="0 (no)"
sequence_content=GUAAAGCAAUAUUACGCUAA class_name="1 (yes)"
sequence_content=ACAGAGCAAUAUUACGCAAU class_name="0 (no)"
sequence_content=GGAUAGCAAUAUUACGAAAU class_name="1 (yes)"
sequence_content=GUAGAGCAAUAUUACGGCGC class_name="1 (yes)"
sequence_content=GUGUAGCAAUAUUACGGUGA class_name="1 (yes)"
sequence_content=AAAGAGCAAUAUUACGAUCA class_name="0 (no)"
sequence_content=UCUAAGCAAUAUUACGUGUA class_name="1 (yes)"
sequence_content=GUCGAGCAAUAUUACGCGUU class_name="1 (yes)"
sequence_content=UCGAAGCAAUAUUACGUCAA class_name="0 (no)"
sequence_content=CUUUAGCAAUAUUACGAGAC class_name="0 (no)"
sequence_content=GCAGAGCAAUAUUACGAGAG class_name="0 (no)"
sequence_content=AUAAAGCAAUAUUACGUUGC class_name="0 (no)"
sequence_content=AGGGAGCAAUAUUACGUUCA class_name="0 (no)"
sequence_content=GAUCAGCAAUAUUACGUUCC class_name="0 (no)"
sequence_content=CAACAGCAAUAUUACGAGCU class_name="0 (no)"
sequence_content=CCCGAGCAAUAUUACGCUGU class_name="0 (no)"
sequence_content=UCCGAGCAAUAUUACGUGCA class_name="0 (no)"
sequence_content=UCCAAGCAAUAUUACGGGCU class_name="0 (no)"
sequence_content=GGAUAGCAAUAUUACGGGAG class_name="0 (no)"
sequence_content=GCCAAGCAAUAUUACGGAGA class_name="1 (yes)"
sequence_content=CCUUAGCAAUAUUACGCAGU class_name="0 (no)"
sequence_content=GUAUAGCAAUAUUACGAGCA class_name="0 (no)"
sequence_content=CUUUAGCAAUAUUACGGUAA class_name="0 (no)"
sequence_content=ACCCAGCAAUAUUACGGUAC class_name="1 (yes)"
sequence_content=AACGAGCAAUAUUACGUCUG class_name="0 (no)"
sequence_content=AGAGAGCAAUAUUACGCCAA class_name="0 (no)"
sequence_content=AUGCAGCAAUAUUACGGCUA class_name="1 (yes)"
sequence_content=GCAUAGCAAUAUUACGCCCA class_name="1 (yes)"
sequence_content=AGGUAGCAAUAUUACGGGUA class_name="0 (no)"
sequence_content=GUCAAGCAAUAUUACGCGCG class_name="0 (no)"
sequence_content=UUCGAGCAAUAUUACGUGUC class_name="0 (no)"
sequence_content=CCCGAGCAAUAUUACGUUAG class_name="0 (no)"
sequence_content=CGCGAGCAAUAUUACGUCUU class_name="0 (no)"
sequence_content=AACCAGCAAUAUUACGUCAC class_name="0 (no)"
sequence_content=GCCUAGCAAUAUUACGACAG class_name="0 (no)"
sequence_content=AUAAAGCAAUAUUACGAAAU class_name="1 (yes)"
sequence_content=GGUUAGCAAUAUUACGAGCG class_name="1 (yes)"
sequence_content=GCGCAGCAAUAUUACGACAG class_name="0 (no)"
sequence_content=CAGAAGCAAUAUUACGCACU class_name="0 (no)"
sequence_content=GCUCAGCAAUAUUACGCUAG class_name="1 (yes)"
sequence_content=CGUUAGCAAUAUUACGCAAA class_name="0 (no)"
sequence_content=AAUUAGCAAUAUUACGCAUU class_name="0 (no)"
sequence_content=GCAUAGCAAUAUUACGAUGG class_name="1 (yes)"
sequence_content=UGUCAGCAAUAUUACGCAAC class_name="0 (no)"
sequence_content=CUUAAGCAAUAUUACGAGAU class_name="0 (no)"
sequence_content=AAGGAGCAAUAUUACGUAUA class_name="0 (no)"
